Biological target: CYP2C8 (Homo sapiens, UniProt P10632)
Sequence (P10632 1-490): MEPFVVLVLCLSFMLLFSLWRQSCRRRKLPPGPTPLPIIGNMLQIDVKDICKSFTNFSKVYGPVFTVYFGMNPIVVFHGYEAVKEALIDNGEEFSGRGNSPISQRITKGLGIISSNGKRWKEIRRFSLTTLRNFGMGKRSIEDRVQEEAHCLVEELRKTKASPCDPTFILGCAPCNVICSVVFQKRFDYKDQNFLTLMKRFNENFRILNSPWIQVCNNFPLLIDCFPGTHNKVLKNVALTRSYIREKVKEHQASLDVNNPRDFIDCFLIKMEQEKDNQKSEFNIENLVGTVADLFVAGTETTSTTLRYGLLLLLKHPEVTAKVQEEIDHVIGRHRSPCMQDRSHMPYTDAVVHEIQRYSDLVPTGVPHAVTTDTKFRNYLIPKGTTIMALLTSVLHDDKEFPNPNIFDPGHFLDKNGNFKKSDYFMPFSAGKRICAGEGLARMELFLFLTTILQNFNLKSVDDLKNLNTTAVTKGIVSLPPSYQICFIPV
MEASUREMENT_KIND: IC50

>>> measurement("CC(=O)[O][Pt]([NH2])([NH2])([Cl])([Cl])[O]C(=O)NCCCCCN1C(=O)C=CC1=O [Compound 8]")
"680 nM"
